- EXPERIMENTAL DETAILS: Dissolution test of poorly-soluble substances using 2nd fluid for disintegration test (pH 6.8) of the Japanese Pharmacopoeia
- Format: physicochemical
- MEASUREMENT CONDITIONS: 2nd fluid for disintegration test; elution time 3 min
ATTRIBUTE MEASURED: Dissolved amount

Below are worked cases with known answers.
MOLECULE	Dissolved amount
Cn1c(=O)c2[nH]cnc2n(C)c1=O [Comparative Example 15, Theophylline]	8635.7 µg/mL
CCn1cc(C(=O)O)c(=O)c2cc(F)c(N3CCNCC3)cc21 [compound 27, Norfloxacin]	688.7 µg/mL
NC(=O)N1c2ccccc2C=Cc2ccccc21 [compound 22, Carbamazepine]	346.6 µg/mL

Shifting focus to the molecule that follows.
Form field Dissolved amount, entry CC(=O)SC[C@@H](C)C(=O)N1CCC[C@H]1C(=O)N[C@@H](Cc1ccccc1)C(=O)O [compound 24, Alacepril] : 2311.1 µg/mL

These entries and their values trace back to patent US9023398B2.
